- experiment: In vitro cytotoxic assay, PC-3; further: 0.1-25 µM tested
- Assay type: cell-based
- protocolConditions: human, PC-3 cells (prostate cancer cell line)
testReadout: IC50 at 48 h (µM)

In [3]: df
Out[3]:
                             smilesnotation  resultvalue
0     N#Cc1nc2ccc3c(=O)n(Cc4ccccc4)cnc3c2s1           11
1  COC(=N)c1nc2cc3ncn(Cc4ccccc4)c(=O)c3cc2s1            2
2  COC(=N)c1nc2cc3c(=O)n(Cc4ccccc4)cnc3cc2s1           20
3     N#Cc1nc2cc3ncn(Cc4ccccc4)c(=O)c3cc2s1            2
4  COC(=N)c1nc2c(ccc3c(=O)n(Cc4ccccc4)cnc32)s1            8
5   N#Cc1nc2c(ccc3c(=O)n(Cc4ccccc4)cnc32)s1           12

###

- assayTarget: Haspin (Homo sapiens, UniProt Q8TF76)
- Construct: amino acids 470 to Histone H3 peptide (1-21): (Other) 798, recombinant; host or cells: bacteria
- Sequence (Q8TF76 470-798): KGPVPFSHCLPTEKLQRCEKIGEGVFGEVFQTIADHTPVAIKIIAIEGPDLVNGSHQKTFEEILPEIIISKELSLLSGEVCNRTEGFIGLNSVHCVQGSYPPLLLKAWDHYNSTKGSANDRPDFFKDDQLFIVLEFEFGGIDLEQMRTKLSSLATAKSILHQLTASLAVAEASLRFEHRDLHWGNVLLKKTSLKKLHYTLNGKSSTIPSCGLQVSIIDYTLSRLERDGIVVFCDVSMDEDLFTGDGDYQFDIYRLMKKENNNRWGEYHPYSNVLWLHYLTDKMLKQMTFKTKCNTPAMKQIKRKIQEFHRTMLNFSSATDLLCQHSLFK
- experiment: ADP-Glo kinase inhibition assay, Haspin
- Type: biochemical
- protocolConditions: 10 μM compound; percentage of maximum activity of the DMSO control; mean n = 2; 10 µM ATP; read-out: Residual activity Haspin
testReadout: remaining activity at 10 µM (%)

In [3]: df
Out[3]:
                                   compound                  testreadout  unitname  resultvalue
0  COC(=N)c1nc2cc3ncnc(Nc4ccc(OC)cc4F)c3cc2s1 [Compound 15b]  remaining activity at 10 µM         %           88
1  COC(=N)c1nc2ccc3ncnc(Nc4ccc(OC)cc4F)c3c2s1 [Compound II, reference compound]  remaining activity at 10 µM         %            8
2  COC(=N)c1nc2cc3c(=O)n(Cc4ccccc4)cnc3cc2s1 [Compound 6a]  remaining activity at 10 µM         %          105
3  COC(=N)c1nc2cc3ncn(Cc4ccccc4)c(=O)c3cc2s1 [Compound 6b]  remaining activity at 10 µM         %           82
4  COC(=N)c1nc2cc3c(Nc4ccc(OC)cc4F)ncnc3cc2s1 [Compound 15a]  remaining activity at 10 µM         %           66
5  COC(=N)c1nc2ccc3ncn(Cc4ccccc4)c(=O)c3c2s1 [Compound I, reference compound]  remaining activity at 10 µM         %           45
6  COC(=N)c1nc2c(ccc3c(=O)n(Cc4ccccc4)cnc32)s1 [Compound 6c]  remaining activity at 10 µM         %           12
7  COC(=N)c1nc2ccc3c(=O)n(Cc4ccccc4)cnc3c2s1 [Compound 6d]  remaining activity at 10 µM         %           51

###

- experiment: In vitro cytotoxic assay, Huh7-D12
- Format: cell-based
- protocolConditions: human, Huh7-D12 cells (liver cancer cell line)
We label by threshold. Values of IC50 at 48 h strictly beneath 9 µM are T. Values of 9 µM and up are F.

                                   compound  classname
0  COC(=N)c1nc2c(ccc3c(=O)n(Cc4ccccc4)cnc32)s1 [Compound 6c]          F
1  COC(=N)c1nc2cc3c(=O)n(Cc4ccccc4)cnc3cc2s1 [Compound 6a]          F
2  COC(=N)c1nc2cc3c(Nc4ccc(OC)cc4F)ncnc3cc2s1 [Compound 15a]          T
3  N#Cc1nc2cc3ncn(Cc4ccccc4)c(=O)c3cc2s1 [Compound 5b]          T
4  COC(=N)c1nc2ccc3ncnc(Nc4ccc(OC)cc4F)c3c2s1 [Compound II, reference compound]          T
